- Test system: MDA-MB-435
- run-description: NCI tumour cell line growth inhibition, 48 h

# compound, tested-on, TGI
measured = [
    ("Oc1ccc(Cl)cc1C1=N/C(=N\\C/N=C2\\N=C(c3cc(Cl)ccc3O)CC(c3ccccc3)N2)NC(c2ccccc2)C1 (centres undefined)", "MDA-MB-435", "> 100 µM"),
    ("Cc1cc(C)c2c(=N)c3ccccc3n(CCCCCCO)c2n1", "MDA-MB-435", "16.7 µM"),
    ("O=C(/C=C(\\O)c1ccccc1)/C(=C/C(=O)c1ccccc1)NN=C(c1ccccc1)c1ccccc1", "MDA-MB-435", "> 100 µM"),
    ("CC1(C)CC2=C(Sc3ccccc3N2)C(=O)C1C(=O)C(=O)Nc1cc(Cl)ccc1Cl (centres undefined)", "MDA-MB-435", "> 100 µM"),
]

Data provenance: PubChem BioAssay (NCI)
